assayed target: Prostaglandin G/H synthase 1 (Homo sapiens); note: assay procedure not described here
Sequence (P23219 whole entry): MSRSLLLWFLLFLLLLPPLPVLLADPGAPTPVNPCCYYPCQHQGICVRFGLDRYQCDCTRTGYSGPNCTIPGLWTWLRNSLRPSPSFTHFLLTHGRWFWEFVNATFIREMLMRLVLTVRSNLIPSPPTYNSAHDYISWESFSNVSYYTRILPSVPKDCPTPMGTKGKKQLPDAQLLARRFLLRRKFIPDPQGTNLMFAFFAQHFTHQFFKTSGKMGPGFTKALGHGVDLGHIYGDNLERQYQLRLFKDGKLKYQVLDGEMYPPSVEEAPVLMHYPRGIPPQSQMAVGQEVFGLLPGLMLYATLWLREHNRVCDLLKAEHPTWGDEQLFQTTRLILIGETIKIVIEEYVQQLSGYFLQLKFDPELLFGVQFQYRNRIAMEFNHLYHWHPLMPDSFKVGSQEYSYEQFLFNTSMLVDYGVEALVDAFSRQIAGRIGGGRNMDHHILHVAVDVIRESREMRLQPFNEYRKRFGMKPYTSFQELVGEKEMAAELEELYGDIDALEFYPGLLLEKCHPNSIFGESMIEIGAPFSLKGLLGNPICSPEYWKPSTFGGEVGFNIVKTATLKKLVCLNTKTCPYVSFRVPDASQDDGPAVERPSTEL
Format: functional
*1 amine or outer side, *2 acyl side, *3 side chain or, on linkers, in order; H or OH if unused. Where a SMILES comes first, the peptide text is derived from it. Bridges are numbered along the chain shown (N, C = ends). [ ]: non-standard residue; d: D form. The star is where a group is joined. hTyr(3S-OH,4S-OH,3'-OSO3H) = N[C@H](C(=O)O)[C@H](O)[C@@H](O)c1ccc(O)c(OS(=O)(=O)O)c1; Orn(4R-OH,5R-OH) = O=C([C@H](C[C@@H](O)[C@@H](O)N[*:3])N[*:1])[*:2]; Pro(3S-OH,4S-Me) = C[C@H]1CN[C@H](C(=O)O)[C@H]1O; X1 = CCCCCOc1ccc(-c2cc(-c3ccc(C(=O)*)cc3)no2)cc1; Gln(3R-OH) = NC(=O)C[C@@H](O)[C@H](N)C(=O)O; Hyp = O=C(O)[C@@H]1C[C@@H](O)CN1
metric: AC50

// field: AC50; key: O=C(NC(Cc1cc(=O)[nH]c2ccccc12)C(=O)O)c1ccc(Cl)cc1 (stereo not drawn) [REBAMIPIDE] ; value = > 30 µM

// field: AC50; key: CCOc1cc(N)c(Cl)cc1C(=O)NCC1CN(Cc2ccc(F)cc2)CCO1 (stereo not drawn) [MOSAPRIDE] ; value = > 30 µM

// field: AC50; key: CCCCCOc1ccc(-c2cc(-c3ccc(C(=O)N[C@H]4C[C@@H](O)[C@@H](O)NC(=O)[C@@H]5[C@@H](O)[C@@H](C)CN5C(=O)[C@H]([C@H](O)CC(N)=O)NC(=O)[C@H]([C@H](O)[C@@H](O)c5ccc(O)c(OS(=O)(=O)O)c5)NC(=O)[C@@H]5C[C@@H](O)CN5C(=O)[C@H]([C@@H](C)O)NC4=O)cc3)no2)cc1 [MICAFUNGIN] (X1-[Orn(4R-OH,5R-OH)]T[Hyp][hTyr(3S-OH,4S-OH,3'-OSO3H)][Gln(3R-OH)][Pro(3S-OH,4S-Me)]; lactam 1-C) ; value = > 30 µM

// field: AC50; key: CN1CCC[C@H]1c1cccnc1 [NICOTINE] ; value = 22 µM

// field: AC50; key: C[C@H]1O[C@@H](O[C@H]2[C@@H](O)C[C@H](O[C@H]3[C@@H](O)C[C@H](O[C@H]4CC[C@@]5(C)[C@H](CC[C@@H]6[C@@H]5CC[C@]5(C)[C@@H](C7=CC(=O)OC7)CC[C@]65O)C4)O[C@@H]3C)O[C@@H]2C)C[C@H](O)[C@@H]1O [DIGITOXIN] ; value = > 30 µM

// field: AC50; key: CCSc1ccc2c(c1)N(CCCN1CCN(C)CC1)c1ccccc1S2 [THIETHYLPERAZINE] ; value = > 0.3 µM

// field: AC50; key: OC(CCCN1CCCCC1)(c1ccccc1)c1ccccc1 [DIPHENIDOL] ; value = > 30 µM

// field: AC50; key: CNC(=O)C[C@@H](N)C(=O)N[C@@H](C(=O)N[C@@H]1C(=O)N2[C@@H]1SC(C)(C)[C@@H]2C(=O)O)c1ccc(O)cc1 [ASPOXICILLIN] ; value = > 30 µM

// field: AC50; key: CCCCCCCCCCCCCCCCCC(=O)NCCCC[C@H](NC(=O)CC[C@@H](NC(=O)[C@H](C)NC(=O)[C@@H](C)O[C@H]1[C@H](O)[C@@H](CO)OC(O)[C@@H]1NC(C)=O)C(N)=O)C(=O)O (stereo partly drawn) [ROMURTIDE] ; value = 5.94 µM

// field: AC50; key: Nc1nc(N)nc(Nc2ccc([As]3SCC(CO)S3)cc2)n1 (stereo not drawn) [MELARSOPROL] ; value = > 30 µM

// field: AC50; key: CNC(=O)Oc1ccc2c(c1)[C@]1(C)CCN(C)[C@@H]1N2C [PHYSOSTIGMINE] ; value = > 10 µM

// field: AC50; key: `COc1nccnc1NS(=O)(=O)c1ccc(N)cc1` ; value = > 30 µM

// field: AC50; key: CCOC(=O)c1ccc(OC(=O)CCCCCNC(=N)N)cc1 [GABEXATE] ; value = > 30 µM

// field: AC50; key: CCC(=O)O[C@@H](O[P@](=O)(CCCCc1ccccc1)CC(=O)N1C[C@H](C2CCCCC2)C[C@H]1C(=O)O)C(C)C [FOSINOPRIL] ; value = > 30 µM

// field: AC50; key: CO/N=C(\C(=O)N[C@@H]1C(=O)N2C(C(=O)[O-])=C(C[n+]3cccc4c3CCC4)CS[C@H]12)c1csc(N)n1 [CEFPIROME] ; value = > 30 µM

// field: AC50; key: CCCCOc1ccc(CC(=O)NO)cc1 [BUFEXAMAC] ; value = > 30 µM

// field: AC50; key: CCCCCCCCNC(C)C(O)c1ccc(SC(C)C)cc1 (stereo not drawn) [SULOCTIDIL] ; value = > 30 µM

// field: AC50; key: C[C@@H]1C[C@H]2[C@@H]3C[C@H](F)C4=CC(=O)C=C[C@]4(C)[C@@]3(Cl)[C@@H](O)C[C@]2(C)[C@H]1C(=O)COC(=O)C(C)(C)C [CLOCORTOLONE PIVALATE] ; value = > 30 µM

// field: AC50; key: CO[C@H]1[C@@H](O)C[C@H](O[C@H]2[C@@H](O)C[C@H](O[C@H]3[C@@H](O)C[C@H](O[C@H]4CC[C@@]5(C)[C@H](CC[C@@H]6[C@@H]5C[C@@H](O)[C@]5(C)[C@@H](C7=CC(=O)OC7)CC[C@]65O)C4)O[C@@H]3C)O[C@@H]2C)O[C@@H]1C [METILDIGOXIN] ; value = > 30 µM

// field: AC50; key: C#C[C@]1(O)CC[C@H]2[C@@H]3CCC4=C(CCC(=O)C4)[C@H]3CC[C@@]21C [NORETHYNODREL] ; value = 11.8 µM

// field: AC50; key: Cc1ccc([C@@H]2O[C@H](CO)[C@@H](O)[C@H](O)[C@H]2O)cc1Cc1ccc(-c2ccc(F)cc2)s1 [CANAGLIFLOZIN ANHYDROUS] ; value = > 30 µM

// field: AC50; key: C[C@@H](O)[C@H]1C(=O)N2C(C(=O)O)=C([C@H]3CCCO3)S[C@H]12 [FAROPENEM] ; value = 11.4 µM

// field: AC50; key: CN(C)CCN(Cc1ccc(Cl)cc1)c1ccccn1 [CHLOROPYRAMINE] ; value = > 30 µM

// field: AC50; key: C[C@H](N)C(=O)O [ALANINE] ; value = > 30 µM

// field: AC50; key: CCCCNc1ccc(C(=O)OCCN(C)C)cc1 [TETRACAINE] ; value = > 30 µM

// field: AC50; key: Nc1ncnc(Nc2ccc(Cl)cc2)n1 [CHLORAZANIL] ; value = > 30 µM

// field: AC50; key: Cn1c(=O)c2c(ncn2CC(O)CO)n(C)c1=O (stereo not drawn) [DYPHYLLINE] ; value = > 30 µM

// field: AC50; key: O=C(Oc1ccccc1C(=O)O)c1ccccc1O [SALSALATE] ; value = > 30 µM
